The entries below are paired with their reported TGI.
Test system: A549 NSCLC
Assay: NCI tumour cell line growth inhibition, 48 h
quantity.kind: TGI

INSERT INTO results (molecule, quantity_kind, readout_value) VALUES
  ('CC[C@H](Nc1nc(N)nc(C)c1C#N)c1nc2cccc(NCc3ccc(C(=O)NO)cc3)c2c(=O)n1-c1ccccc1', 'TGI', '5.43 µM'),
  ('O=C(Nc1ccc(CN2CCOCC2)cc1)c1[nH]ncc1Nc1ncnc2sccc12', 'TGI', '13.8 µM'),
  ('O=C(O)CCSCc1ccc(I)cc1', 'TGI', '> 100 µM'),
  ('C/C1=C/C2=CC(C)C[C@@H]2C(=O)[C@]2(C)C(=O)CC(C)(C)[C@H]2CC1=O (stereo not given in full)', 'TGI', '> 50 µM'),
  ('C[C@@H]1CC[C@@H]2[C@@H]1[C@H](OC(=O)/C=C/c1ccccc1)[C@]1(C3CCCCC3)C[C@@H](NC(=O)CO)[C@@]2(C)O1', 'TGI', '37 µM'),
  ('COc1ccc2c3c(n(Cc4ccccc4)c(=O)c2c1)-c1cc(OC)c(OC)cc1C3C (stereo not given)', 'TGI', '> 100 µM'),
  ('COC1CCC(O)C(/C=C/[N+](=O)[O-])C1 (stereo not given)', 'TGI', '42.9 µM'),
  ('CCn1c(-c2ccc(F)cc2)nc2c1C(=O)c1ccccc1C2=O', 'TGI', '> 100 µM'),
  ('N#Cc1ccc(N2Cc3ccccc3OC3=C2C(=O)c2c(O)ccc(O)c2C3=O)cc1', 'TGI', '9.76 µM'),
  ('C[C@]12CCc3nonc3C1CC[C@@H]1C2CC[C@]2(C)NC(=O)CCC12 (stereo not given in full)', 'TGI', '> 100 µM'),
  ('CCOc1cc2c(cc1O)/C(=N\O)C[C@@H]1[C@@H]2CC[C@]2(C)[C@@H](O)CC[C@@H]12', 'TGI', '> 100 µM'),
  ('O=[N+]([O-])c1ccc2c(c1)Nc1c3ccccc3nc3cccc-2c13', 'TGI', '15.9 µM'),
  ('CCOC(=O)C1=C(O)CSC1=Nc1ccccc1', 'TGI', '> 100 µM'),
  ('Nc1c(-c2nc3ccccc3o2)sc(=S)n1-c1ccc(Cl)cc1', 'TGI', '39.2 µM'),
  ('C=CCC(CC=O)(C(=O)OCC)C(=O)OCC', 'TGI', '> 100 µM'),
  ('CC(=O)Nc1ccc(CNc2cc(=O)n(C)c(=O)[nH]2)cc1', 'TGI', '> 100 µM'),
  ('CO/N=C(\C)c1cccc(Nc2cc(-c3ccccc3)nc3c(O)cccc23)c1', 'TGI', '21.8 µM'),
  ('CN(C)c1nc2n(CCO)c(-c3ccccc3)c(-c3ccccc3)nc-2c(=O)n1', 'TGI', '> 100 µM'),
  ('CCCCCC[C@H]1CC(=O)C2CCCC[C@@]23CC[C@H](CCl)N13 (stereo not given in full) (tested in a mixture with another compound)', 'TGI', '> 100 µM'),
  ('COc1ccc2c(c1)[n+]([O-])c(-c1ccccc1)c(N)[n+]2[O-]', 'TGI', '> 100 µM'),
  ('O=C(CCCN1CCC2(CC1)NC(=O)c1ccccc1O2)c1ccc(F)cc1', 'TGI', '> 100 µM'),
  ('O=[N+]([O-])c1ccc2c(N3CCC(CCCC4CCN(c5ncnc6cc([N+](=O)[O-])ccc56)CC4)CC3)ncnc2c1', 'TGI', '> 100 µM'),
  ('N=c1nc2n(cc1F)[C@@H]1O[C@H](CO)[C@@H](O)[C@@H]1O2', 'TGI', '> 100 µM'),
  ('CCOC(=O)CC1(O)CCCCC1(Sc1ccc(C)cc1)Sc1ccc(C)cc1 (stereo not given)', 'TGI', '> 100 µM'),
  ('Cc1ccc(C[P+]2(c3ccccc3)CCCCC2)cc1', 'TGI', '> 100 µM'),
  ('CN1C(=O)N/C(=C\c2ccc(S(=O)(=O)N/N=C\C(O)C(O)C(O)CO)cc2)C1=O (stereo not given)', 'TGI', '> 100 µM'),
  ('Cc1ccc(S(=O)(=O)/N=C(\N)N(C)N=O)cc1', 'TGI', '> 100 µM'),
  ('CCOC(=O)C1=C(C)OC(=O)[C@@]2(OC)C=C(Cl)[C@@]12C', 'TGI', '> 100 µM'),
  ('Cc1cnc(-c2c[nH]c3ccccc23)nc1-c1c[nH]c2ccccc12', 'TGI', '20.2 µM'),
  ('Cc1ccc2nc(-c3ccc(-n4c(C)nc(=O)c(-c5ccc(F)cc5)c4C)cc3)sc2c1', 'TGI', '35.6 µM'),
  ('CC1(C)CCc2cc3c(cc2O1)OCC1c2cc4c(cc2OC31)OCO4 (stereo not given)', 'TGI', '> 100 µM'),
  ('CN(C)CCNC(=O)Cn1cc([N+](=O)[O-])c(=O)c2ccccc21', 'TGI', '> 100 µM'),
  ('CC(=O)O[C@]1(C)OC(=O)[C@@H](C)N1[N+](=O)[O-]', 'TGI', '> 100 µM'),
  ('c1ccc(-c2cc(C3CO3)c3ccccc3n2)cc1 (stereo not given)', 'TGI', '40.4 µM'),
  ('O=S(=O)(O)c1ccc(-c2nnc(-c3ccccn3)nc2-c2ccc(S(=O)(=O)O)o2)o1', 'TGI', '> 100 µM'),
  ('Fc1ccc(OCc2nc3cc(C(F)(F)F)ccc3nc2-c2ccccc2)cc1', 'TGI', '> 100 µM'),
  ('NNC(=S)N/N=C(/C(=O)Nc1cc(Cl)ccc1Cl)C1C(=O)Nc2ccccc2S1=O (stereo not given)', 'TGI', '> 100 µM'),
  ('CCOC(=O)c1cc2c(nc1N)-c1ncccc1CC2', 'TGI', '> 100 µM'),
  ('COC(=O)[C@]12CC[C@@H](C)[C@H](C)[C@@H]1C1=CC[C@@H]3[C@@]4(C)C(C=O)=C[C@@](C)(COC(=O)c5ccco5)[C@@H]4C(=O)C[C@@]3(C)[C@]1(C)CC2', 'TGI', '> 100 µM'),
  ('CCCc1c[nH]c(-c2ccc(-c3cc(CCC)c(C=O)[nH]3)s2)c1', 'TGI', '17.6 µM');

----------
System: MCF7 breast
Assay: NCI tumour cell line growth inhibition, 48 h; in the data active means GI50 below about 0.43 µM; inactive means the rest
Outcomes: class 1 = active, class 0 = inactive

INSERT INTO measurements (compound, discrete_label) VALUES
  ('CC1CCN(CCCCCOc2ccc3oc4cc(Cl)ccc4c(=O)c3c2)CC1', 'class 0'),
  ('CNC(=O)c1ccc2cc(C3(O)CCn4cncc43)ccc2c1 (stereo not given)', 'class 0'),
  ('Cn1cc(C2=C(c3cccnc3)C(=O)NC2=O)c2ccccc21', 'class 0'),
  ('Cc1cnc(/C=N\NC(N)=S)c2cccc(N)c12', 'class 0'),
  ('O=C(Nc1ccc(CN2CCOCC2)cc1)c1[nH]ncc1Nc1ncnc2sccc12', 'class 1'),
  ('CN(C)c1ncnc2c1nnn2C1OC(CO)C(O)C1O (stereo not given)', 'class 1'),
  ('Oc1c(CN2CCCC2)cc(COCc2ccc(Br)cc2)c2cccnc12', 'class 1'),
  ('O=C(CCCN1CCOCC1)Nc1ccc(Cn2nnc3c2C(=O)c2nnn(Cc4ccc(NC(=O)CCCN5CCOCC5)cc4)c2C3=O)cc1', 'class 0'),
  ('CCOC(=O)c1c2c(n(Cc3ccccc3)c1C)-c1ccccc1C(=O)C2=O', 'class 0'),
  ('Oc1ccc(O)c(-c2cc(-c3ccccc3)nn2-c2ccccc2)c1', 'class 0');

----------
Test system: SF-268 CNS
Assay: NCI tumour cell line growth inhibition, 48 h
The entries below are paired with their reported TGI.
quantity.kind: TGI

INSERT INTO measurements (molecule, study_target, readout_value) VALUES
  ('CC/C=C\C/C=C\C[C@H](O)C/C=C1/C(=O)C=C[C@@H]1C/C=C\CCCC(=O)O', 'SF-268 CNS', '34 µM'),
  ('CN=C(NC#N)NCCSCc1nc[nH]c1C', 'SF-268 CNS', '> 100 µM'),
  ('Cc1ccc([N+](=O)[O-])cc1NC(=O)C(=O)C(C(=O)c1ccccc1F)C1OC(=O)c2ccccc21 (stereo unspecified)', 'SF-268 CNS', '98.8 µM'),
  ('C1C[S][Ge]2([S]CCO1)[S]CCOCC[S]2', 'SF-268 CNS', '> 100 µM'),
  ('O=C(Nc1ccc(CN2CCOCC2)cc1)c1[nH]ncc1Nc1ncnc2sccc12', 'SF-268 CNS', '5.6 µM'),
  ('CCOC(=O)C1=C(C)NC2SC(=O)/C(=C\c3ccccc3O)N2C1c1ccccc1 (stereo unspecified)', 'SF-268 CNS', '> 100 µM'),
  ('CCCCOC(=O)NC(Nc1ccc(S(=O)(=O)Nc2ccc(OC)nn2)cc1)(C(F)(F)F)C(F)(F)F', 'SF-268 CNS', '> 100 µM'),
  ('O=[N+]([O-])c1ccc2c(c1)Nc1c3ccccc3nc3cccc-2c13', 'SF-268 CNS', '40.5 µM'),
  ('COc1ccc(OC)c(C23CCCC(C2)N(C)CC3)c1 (stereo unspecified)', 'SF-268 CNS', '> 100 µM'),
  ('O=C1c2ccccc2C(=O)c2c1ccc1nc3c(nc21)-c1c2ccccc2cc2cccc-3c12', 'SF-268 CNS', '> 100 µM'),
  ('CN(C)c1nc2n(CCO)c(-c3ccccc3)c(-c3ccccc3)nc-2c(=O)n1', 'SF-268 CNS', '> 100 µM'),
  ('CN(Cc1cnc2nc(N)nc(N)c2n1)c1ccc(C(=O)NCS(=O)(=O)O)cc1', 'SF-268 CNS', '> 100 µM'),
  ('C[C@]12CCc3nonc3C1CC[C@@H]1C2CC[C@]2(C)NC(=O)CCC12 (stereo partly specified)', 'SF-268 CNS', '> 100 µM'),
  ('Cc1cccc(C(=O)/C=C/SC(=NC#N)SCc2ccccc2)c1', 'SF-268 CNS', '> 100 µM'),
  ('CCOC(=O)CC1(O)CCCCC1(Sc1ccc(C)cc1)Sc1ccc(C)cc1 (stereo unspecified)', 'SF-268 CNS', '> 100 µM'),
  ('CCOC(=O)c1cc2c(nc1N)-c1ncccc1CC2', 'SF-268 CNS', '> 100 µM'),
  ('C[C@@H]1CC[C@@H]2[C@@H]1[C@H](OC(=O)/C=C/c1ccccc1)[C@]1(C3CCCCC3)C[C@@H](NC(=O)CO)[C@@]2(C)O1', 'SF-268 CNS', '30 µM'),
  ('COC(=O)C1=C(C(=O)OC)C23CC1C1C(C(=O)OC)=C(C(=O)OC)C12C1C=CC3C2C(=O)OC(=O)C21 (stereo unspecified)', 'SF-268 CNS', '> 100 µM'),
  ('O=C(CSC(c1ccccc1)c1ccccc1)N/N=C/c1cccc(Cl)c1', 'SF-268 CNS', '35 µM'),
  ('COc1ccc2c(c1)c1c(n2CCN(C)C)-c2cccc(OC)c2CC1', 'SF-268 CNS', '38.9 µM'),
  ('O=C(O)c1ccc([N+]2=Cn3c(nc4ccccc43)C2)cc1', 'SF-268 CNS', '> 100 µM');
